Each recorded value in this set is attributed to patent US20150239980A1.

target_or_test_system: T1, recombinant hMCAM-His (human, UniProt P43121 24-559)
T1 construct: not shown: His tag
T1 chain: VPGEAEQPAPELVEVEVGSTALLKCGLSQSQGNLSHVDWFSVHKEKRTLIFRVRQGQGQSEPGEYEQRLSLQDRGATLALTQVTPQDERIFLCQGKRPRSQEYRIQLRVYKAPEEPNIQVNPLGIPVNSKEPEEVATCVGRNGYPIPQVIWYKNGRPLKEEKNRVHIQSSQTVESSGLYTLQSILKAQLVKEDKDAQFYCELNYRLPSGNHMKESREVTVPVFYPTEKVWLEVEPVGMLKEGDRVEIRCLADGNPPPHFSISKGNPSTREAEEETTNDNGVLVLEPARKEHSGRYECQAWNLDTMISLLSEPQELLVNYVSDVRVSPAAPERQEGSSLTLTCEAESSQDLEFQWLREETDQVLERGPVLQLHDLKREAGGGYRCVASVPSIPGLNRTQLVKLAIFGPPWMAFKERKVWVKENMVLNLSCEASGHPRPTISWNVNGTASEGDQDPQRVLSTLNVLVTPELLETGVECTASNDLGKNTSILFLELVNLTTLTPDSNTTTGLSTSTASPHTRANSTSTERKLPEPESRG
protocol_description: competitive ELISA on hMCAM-His, competitor biotinylated rodent or chimeric 1749; vs rodent 1749
recorded_endpoint: fold over rodent (competitive ELISA) (fold)
Express your answer in fold, writing the number without its unit.

Examples from the recorded data:
Exercise: What does the record list as fold over rodent (competitive ELISA) for h1749VH2 + h1749VL1 (antibody, human IgG1, V domains shown, also called h1749VH2VL1) VH: EVQLVESGGGLVQPGGSLRLSCAASGFTFSSYIMSWVRQAPGKRLEWVATISSGGSSTYYPDSVKGRFTISRDNAKNSLYLQMNSLRAEDTAVYYCTRDDDYDVKVFAYWGQGTMVTVSS VL: DIVMTQSPDSLAVSLGERATINCKSSRSLLNSRIRKNYLAWYQQKPGQPPKLLIYWASTRESGVPDRFSGSGSGTDFTLTISSLQAEDVAVYYCKQSYNLLTFGQGTKVEIK ?
Key: 1

Exercise: Consider next the binder h1749VH2 + h1749VL2 (antibody, human IgG1, V domains shown, also called humanized 1749 conservative VH and VL) VH: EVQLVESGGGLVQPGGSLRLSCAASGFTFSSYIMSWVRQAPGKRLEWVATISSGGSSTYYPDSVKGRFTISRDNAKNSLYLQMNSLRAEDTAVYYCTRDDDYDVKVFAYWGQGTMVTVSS VL: DIVMTQSPDSLAVSLGERATINCKSSRSLLNSRIRKNYLAWYQQKPGQPPKLLIYWASTRESGVPDRFTGSGSGTDFTLTISSLQAEDVAVYYCKQSYNLLTFGQGTKVEIK in the same way.
Key: 1.1

Exercise: Consider next the binder mouse anti-human MCAM monoclonal antibody clone 1749.1.3 (antibody, V domains shown, mouse hybridoma antibody; also called rodent 1749; murine 1749.1.3 anti-MCAM antibody) VH: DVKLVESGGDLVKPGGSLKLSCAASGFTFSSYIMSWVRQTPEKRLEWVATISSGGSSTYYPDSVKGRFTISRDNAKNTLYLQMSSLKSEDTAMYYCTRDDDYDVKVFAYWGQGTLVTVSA VL: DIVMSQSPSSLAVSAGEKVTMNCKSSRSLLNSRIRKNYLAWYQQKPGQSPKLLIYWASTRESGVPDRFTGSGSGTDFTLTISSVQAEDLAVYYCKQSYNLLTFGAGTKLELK in the same way.
Key: 1

Continuing:
Exercise: What does the record list as fold over rodent (competitive ELISA) for h1749VH1 + h1749VL1 (antibody, human IgG1, V domains shown, also called humanized 1749 standard VH and VL) VH: EVQLVESGGGLVQPGGSLRLSCAASGFTFSSYIMSWVRQAPGKGLEWVATISSGGSSTYYPDSVKGRFTISRDNAKNSLYLQMNSLRAEDTAVYYCTRDDDYDVKVFAYWGQGTMVTVSS VL: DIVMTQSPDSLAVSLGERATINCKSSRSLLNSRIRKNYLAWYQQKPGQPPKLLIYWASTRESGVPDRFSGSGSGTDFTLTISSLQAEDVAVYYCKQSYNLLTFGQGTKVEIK ?
Key: 1

Exercise: Consider next the binder h1749VH1 + h1749VL2 (antibody, human IgG1, V domains shown) VH: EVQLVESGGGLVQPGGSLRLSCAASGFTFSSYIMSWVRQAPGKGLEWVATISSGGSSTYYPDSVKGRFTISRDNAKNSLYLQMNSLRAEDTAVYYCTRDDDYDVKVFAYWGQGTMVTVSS VL: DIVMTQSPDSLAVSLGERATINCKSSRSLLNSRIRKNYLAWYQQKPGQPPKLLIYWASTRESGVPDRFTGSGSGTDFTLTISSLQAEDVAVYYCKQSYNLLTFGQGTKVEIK in the same way.
Key: 1
